value.type: melting point

# compound, melting point
measured = [
    ("O=C1CN2Cc3c(O)cccc3N=C2N1", "> 280 °C"),
    ("Cc1c(CO)cccc1NC(=O)CC12CC3CC(CC(C3)C1)C2", "205 to 206 °C"),
    ("O=[N+]([O-])c1oc2ccc(-c3nnn[nH]3)cc2c1-c1ccccc1", "215 to 217 °C"),
    ("COc1ccc(-c2cc(=O)n(CCCOc3ccccc3)nc2-c2ccc(OC)cc2)cc1", "110 to 111 °C"),
]

Give recorded melting point. Cc1sc2ccc(Cl)cc2c1C1=NCCN1
190 to 192 °C

Answer with reported melting point of O=C(C=Cc1cccc(-c2ccccc2)c1)Nc1ccc(CP2(=O)OCCCO2)cc1
204 to 205 °C

Specify reported melting point for the compound shown: CCOc1nc2cccc(C(=O)O)c2n1Cc1ccc(-c2ccccc2-c2nnnn2C(c2ccccc2)(c2ccccc2)c2ccccc2)cc1
168 to 170 °C

Consider the compound C[C@@H]1CN(c2c(F)c(N)c3c(=O)c(C(=O)O)cn(C4CC4)c3c2F)C[C@H]1N (relative stereo) . State its measured melting point.
234 to 236 °C

Give a short answer stating reported melting point for CN1CCC(CNc2ncc3ncnc(Nc4ccc(F)c(Cl)c4)c3n2)CC1 .
198 to 201 °C

Identify melting point associated with the compound CN(C)NC(=O)NC1c2ccccc2Oc2ccccc21
189 to 191 °C

# return recorded melting point for entry CCCCc1nc2ccn(Cc3ccc(N)cc3)c(=O)c2n1Cc1ccc(-c2ccccc2C#N)cc1
223 °C

====

We begin with a simple list: items and their reported melting point.

Take a look at these entries with their results.
# compound, melting point
measured = [
    ("CS(=O)(=O)c1c(CC(=O)O)n(Cc2ccc(Cl)cc2)c2ccc(F)cc12", "202 °C"),
    ("CCn1cc(C(=O)O)c(=O)c2cc(F)c(C)c(F)c21", "245 to 248 °C"),
    ("CCOC(=O)COc1ccc(C=O)cc1NC(=O)c1ccc(OCCCCc2ccccc2)cc1", "109 to 110 °C"),
    ("COC(=O)c1ccc(C(=O)NS(=O)(=O)c2ccc(OC(F)(F)F)cc2)cn1", "221 to 223 °C"),
    ("CCOC(=O)c1oc2ccc(Cl)cc2c1C(=O)OCC", "33 to 35 °C"),
    ("O=[N+]([O-])c1cc(F)ccc1NC1CCCCC1", "93 °C"),
]

Let us move to another entry and its melting point.
Give reported melting point value for Cc1cc(F)c([N+](=O)[O-])cc1[N+](=O)[O-]
76 °C

====

value.type: melting point

// below: answered compounds
# compound, value.type, assay.result
rows = [
    ("CCOC(=O)C(=CC=C(C)C=CC=C(C)C=CC1=C(C)CCCC1(C)C)CC", "melting point", "164 to 165 °C"),
    ("CCCCc1c(C(=O)c2ccc(O)cc2)c2cc([N+](=O)[O-])ccc2n1C", "melting point", "198 °C"),
    ("CN(C)S(=O)(=O)c1cc(C(=O)O)cc(N2CCCC2)c1Oc1ccccc1", "melting point", "214 to 215 °C"),
    ("CCCCCCCCCCOc1ccccc1C(N)=O", "melting point", "58 to 59 °C"),
    ("O=C(Oc1ccccc1)C1CCCc2ccc([N+](=O)[O-])cc21 (stereo unspecified)", "melting point", "83 to 84 °C"),
    ("O=C(CSc1ccccc1)C1CCCCN1 (stereo unspecified)", "melting point", "68.5 to 69.5 °C"),
]

// fetch melting point given entry COc1cc2c(c(Cl)c1Cl)SC(c1ccccc1)C2=O (stereo unspecified)
228 to 229 °C

Given O=C(c1ccc(Cl)cc1)C(Cn1cncn1)n1cncn1 (stereo unspecified) , respond with its melting point.
204 °C

Return the recorded melting point value; entry: CCN1CCC(c2c[nH]c3ccc(NS(C)(=O)=O)cc23)CC1
179 to 181 °C

Give the reported melting point for this compound. CCCCNC(=O)C(C)(C)N=NC(C)(C)C(=O)NCCCC
65 °C

Give melting point for CC(CC(C(=O)N(C)C)(c1ccccc1)c1ccccc1)N1CCC(NC(=O)c2ccccc2O)C(O)C1 (stereo unspecified)
154 °C

====

value.type: melting point

Known results for compounds:
# compound, melting point
rows = [
    ("CCOC(=O)c1cc([N+](=O)[O-])ccc1OCc1ccc2ccccc2n1", "139 to 140 °C"),
    ("N#Cc1c[nH]c2cc(N3CCC(N4CCCC4)CC3)c([N+](=O)[O-])cc2c1=O", "232 to 235 °C"),
    ("NCC(O)C(Oc1ccc(C(F)(F)F)cc1)c1ccccc1 (stereo unspecified)", "120 to 122 °C"),
]

Indicate the recorded melting point value for this compound: CCc1[nH]c2cccc3c2c1CC1C3CC(NC(=O)N(CC)CC)CN1C (stereo unspecified)
165 to 168 °C

Retrieve melting point measured for COc1ccc2oc3ccc(I)cc3c2c1C(=O)Nc1ccncc1 and print it.
255 to 257 °C

Name the recorded melting point of the item O=C1c2ccccc2-c2nn(CCO)c3ccc(NCCNCCO)c1c23 in your answer.
209 to 211 °C

====

value.type: melting point

Below, 2 compounds whose answers are already recorded.
# compound, melting point
records = [
    ("COc1cc(C)c(C(=O)c2c(Cl)cccc2Cl)c(OC)c1OC", "92 °C"),
    ("C=Cc1ccc(NC(=O)N2CCN(c3ncnc4cc(OC)c(OC)cc34)CC2)cc1", "214 to 216 °C"),
]

Quote melting point reported for O=C(C=Cc1cccnc1)NCCCCC1CCN(C(c2ccccc2)C2CCCCC2)CC1 (stereo not given) please.
143 to 145 °C

# return recorded melting point for input COCc1cccc(C(=O)c2nc(OC)cc(OC)n2)c1N
100 to 101 °C

Output melting point of CNc1nc(-c2ccc(F)cc2)c(I)c(C(C)C)n1
195 to 196 °C

====

Reported melting point values for the following molecules.

# molecule, value.type, assay.result
records = [
    ("CN(CCOc1cccc(Cl)c1CN)Cc1ccccc1", "melting point", "85 °C"),
    ("Nc1ccc(-c2ccc(=O)[nH]n2)cc1Cl", "melting point", "280 to 282 °C"),
    ("COc1cc(OC)c2nccc(Cl)c2c1", "melting point", "115 to 116 °C"),
    ("CCN1c2ncc(CSc3ccccc3)cc2C(=O)N(C)c2ccc(Cl)nc21", "melting point", "92 to 93 °C"),
    ("O=[N+]([O-])c1cc2nc(O)c(O)nc2cc1Br", "melting point", "> 300 °C"),
]

Identify the reported melting point for the following entry. CC(C)OC(=O)c1cn(Cc2c(F)cccc2F)c2nc(-c3ccc(N)cc3)c(CN(C)Cc3ccccc3)n2c1=O
168 to 170 °C

Give the reported value of melting point for this record: Cc1cc(-c2nc3cccnn3c2-c2ccnc(NC(=O)NC3CCCCC3)c2)ccc1F
229 to 230 °C

Please indicate melting point recorded for c1ccc(-c2nnc3c4ccccc4c(N4CCCC4)nn23)cc1
208 °C

====

# maps each entry to its melting point

Past entries and their recorded results:
# compound, melting point
measured = [
    ("CS(=O)(=O)c1ccc(-n2c(-c3ccc(F)cc3)nc(O)c(C#N)c2=O)cc1", "> 285 °C"),
    ("CN(NC(=O)c1ccc(C#N)cc1)C(=O)OC(C)(C)C", "179 to 181 °C"),
]

Name the recorded melting point of the compound listed here: COc1c(C)c(C)c(OC)c([N+](=O)[O-])c1[N+](=O)[O-]
147 to 150 °C

Read off the recorded melting point for CC(=O)OCCOC(=O)C1=C(C)Nc2nc(N3CCOCC3)nc(N3CCOCC3)c2C1c1cccnc1 (stereo not given)
170 °C

Quote melting point reported for CC(C)(CCc1nnn[nH]1)c1ccc(C(=O)Nc2cn3cc(Cl)ccc3n2)cc1 please.
250 to 251 °C

====

value.type: melting point

# compound, melting point
measured = [
    ("COC(=O)c1cc([N+](=O)[O-])ccc1CS(N)(=O)=O", "167 to 170 °C"),
]

Given the compound CCC(C(OC)OC)N(C1CCCCC1)C1CCCCC1 (configuration not stated) , write its reported melting point.
73.5 to 74.2 °C

Indicate its recorded melting point; the compound in question is O=C1NC(=O)C2(O1)C(=O)N(Cc1ccc(Cl)c(Cl)c1)c1c(F)cccc12 (configuration not stated)
101 to 102 °C

Return reported melting point. Input compound: CCCOc1ccc(S(=O)(=O)N2CCOCC2)cc1-c1nc2c([nH]1)c1nncn1c(=O)n2CCC
169 °C

# return recorded melting point for entry CCCCc1ncc(/C=C(\Cc2cccs2)C(=O)O)n1Cc1ccc(C(=O)OC)cc1
217 to 220 °C

Quickly give me recorded melting point for O=c1c2ccccc2sc2c(OCc3ccccc3)ccc(Cl)c12
139 to 140 °C

Tell me measured melting point for c1csc(-c2ccc(-c3cc4ncnc(Nc5ccc6[nH]ccc6c5)c4s3)cc2)c1 please.
165 to 178 °C

Source of measurements: a melting point compilation (Tetko et al.; mined from patent text by program, amines drawn as free bases though some values may be those of a salt)
